# run-description: Inhibition of c-Src tyrosine kinase

{"structure": "CCN(CC)CCOc1ccc(Nc2ncc3cc(-c4c(C)cccc4C)c(=O)n(C)c3n2)cc1", "IC50": "23 nM"}
{"structure": "Cn1c(=O)c(-c2c(Cl)cccc2Cl)cc2cnc(Nc3ccc(CCCC(=O)OCCN4CCCCC4)cc3)nc21", "IC50": "11 nM"}
{"structure": "Cn1c(=O)c(-c2c(Cl)cccc2Cl)cc2cnc(Nc3ccc(OCCCC(=O)O)cc3)nc21", "IC50": "4 nM"}
{"structure": "Cn1c(=O)c(-c2c(Cl)cc(O)cc2Cl)cc2cnc(Nc3ccccc3)nc21", "IC50": "73 nM"}
{"structure": "Cn1c(=O)c(-c2c(Cl)cccc2Cl)cc2cnc(Nc3ccc(CC(N)=O)cc3)nc21", "IC50": "13 nM"}

* * *

// log10(IC50) collected for Wee1-like protein kinase (Homo sapiens, UniProt P30291)
observation-type: log10(IC50) (log10 of the value in nM)

{"structure": "CCN(CC)CCOc1ccc(Nc2ncc3c(C)c(-c4ccccc4Cl)c(=O)n(C)c3n2)cc1", "log10(IC50)": 2.74}
{"structure": "Cc1cccc(Cl)c1-c1cc2cnc(Nc3ccccc3)nc2n(C)c1=O", "log10(IC50)": 3.28}
{"structure": "Cn1c(=O)c(-c2c(O)cccc2Cl)cc2cnc(Nc3ccccc3)nc21", "log10(IC50)": 3.18}
{"structure": "Cn1c(=O)c(-c2c(Cl)ccc(C(=O)O)c2Cl)cc2cnc(Nc3ccccc3)nc21", "log10(IC50)": 3.51}
{"structure": "CN(C)CCOC(=O)CCCc1ccc(Nc2ncc3cc(-c4c(Cl)cccc4Cl)c(=O)n(C)c3n2)cc1", "log10(IC50)": 2.09}
{"structure": "Cn1c(=O)c(-c2c(Cl)ccc(O)c2Cl)cc2cnc(Nc3ccccc3)nc21", "log10(IC50)": 1.87}
{"structure": "Cn1c(=O)c(-c2c(Cl)cc(O)cc2Cl)cc2cnc(Nc3ccccc3)nc21", "log10(IC50)": 2.34}
{"structure": "Cn1c(=O)c(-c2c(Cl)ccc(O)c2Cl)cc2cnc(Nc3ccc(OCCCC(=O)O)cc3)nc21", "log10(IC50)": 1.60}
{"structure": "CCN(CC)CCOc1ccc(Nc2ncc3cc(-c4c(Cl)cc(O)cc4Cl)c(=O)n(C)c3n2)cc1", "log10(IC50)": 1.90}
{"structure": "Cn1c(=O)c(-c2c(Cl)cccc2Cl)cc2cnc(Nc3ccc(CCCC(=O)OCCN4CCCCC4)cc3)nc21", "log10(IC50)": 2.15}
